# target system: T1, FZD4 CRD (Homo sapiens, UniProt Q9ULV1)
# T1 construct: E42-V167; GPI anchor signal (C); expressed in transfected cells; host or cells: CHO cells, lentiviral pLenti-puro
# T1 sequence (Q9ULV1 42-167): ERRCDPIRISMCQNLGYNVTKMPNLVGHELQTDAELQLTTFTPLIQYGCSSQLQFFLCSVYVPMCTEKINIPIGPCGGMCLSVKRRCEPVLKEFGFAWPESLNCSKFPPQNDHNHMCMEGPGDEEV
# assay: Immunofluorescence of anti-FZD5 Fab binding to CHO cells overexpressing Frizzled CRD
# Parameters: key: −: no binding; +: very weak binder; ++: weak binder; +++: good binder; ++++: very good binder
endpoint: Immunofluorescence binding, Frizzled CRD overexpressed on CHO cells: FZD4

Fab-2933: anti-FZD5 Fab with antibody variable region Fv-2933; CDR SEQ ID NOs: 35, 36, 72, 109, 148, 177 (antibody, V domains shown) VH: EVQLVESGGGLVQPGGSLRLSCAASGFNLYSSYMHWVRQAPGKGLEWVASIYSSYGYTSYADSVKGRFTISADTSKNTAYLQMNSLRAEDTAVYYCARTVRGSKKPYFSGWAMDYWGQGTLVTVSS VL: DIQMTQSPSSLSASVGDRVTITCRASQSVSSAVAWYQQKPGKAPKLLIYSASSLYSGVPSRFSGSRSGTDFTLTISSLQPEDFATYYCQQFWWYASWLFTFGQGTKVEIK: +++
Fab-2901: anti-FZD5 Fab with antibody variable region Fv-2901; CDR SEQ ID NOs: 35, 36, 40, 79, 116, 154 (antibody, V domains shown) VH: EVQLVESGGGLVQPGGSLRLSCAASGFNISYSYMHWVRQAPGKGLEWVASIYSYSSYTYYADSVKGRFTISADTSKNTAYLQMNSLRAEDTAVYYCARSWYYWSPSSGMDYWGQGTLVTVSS VL: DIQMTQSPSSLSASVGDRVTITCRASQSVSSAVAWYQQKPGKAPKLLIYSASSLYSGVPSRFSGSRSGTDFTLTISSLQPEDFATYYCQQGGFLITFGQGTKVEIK: −

Values compiled from patent US20210253718A1.
